Catalogue of TGI values
System: NCI-H522 lung
measurement description: NCI tumour cell line growth inhibition, 48 h
Express your answer in µM, writing the number without its unit.

CN(C)CC(=O)Nc1ccc2ncnc(Nc3ccc(Oc4cccc(C(F)(F)F)c4)c(Cl)c3)c2c1 :: 5.37
COc1cc(N2C(=O)[C@H](c3ccccc3)C2c2ccc(SC)cc2)cc(OC)c1OC (stereo not given in full) :: 0.0734

Next up:
Exercise: If you can, please state the reported TGI value of N#CC1=C(N)NC(=S)NC12Nc1ccccc1S2 (stereo not given) .
Solution: 70.5

----------
Test system: A549 NSCLC
measurement description: NCI tumour cell line growth inhibition, 48 h
recorded metric: TGI

CCOc1ccc(/C=C/c2cc(OC)c(OC)c(OC)c2)cc1 :: > 100 µM
COc1ccc2c(C)c(Oc3c(Cl)c(Cl)c(O)c(C#N)c3C#N)oc2c1 :: > 100 µM
OCC[N+]12CCCN1CCC2 :: > 100 µM
Cc1ccc(NC(=O)CC/C(CC(=O)C(C)(C)C)=N\NC(=O)C[n+]2ccccc2)cc1C :: > 100 µM
CC12CCC(=O)N1c1cncnc1N2 (stereo unspecified) :: > 10 µM

Next up:
Exercise: Item: CC(C)(C)C1CCC2c3c([nH]c4ccccc34)C3C(=O)N(c4ccccc4Cl)C(=O)C3C2C1 (stereo unspecified) Test system: A549 NSCLC Read-out: TGI Value: ?
Solution: 86.5 µM

----------
System: OVCAR-5 ovarian
measurement description: NCI tumour cell line growth inhibition, 48 h
recorded metric: TGI

Some entries whose results are on file:
O=C(CSCC(=O)N/N=C/c1ccccc1)N/N=C\c1ccccc1 :: > 100 µM
Nc1[nH]c(=S)nc2nc3c(c(-c4ccccc4)c12)CCCC3 :: > 100 µM

Exercise: If you can, please state the reported TGI value of Cc1ccc(S(=O)(=O)N2CCN(C=S)CC2)cc1 .
Solution: > 100 µM

Exercise: If you can, please state the reported TGI value of CC(=O)OCC1OC(OC2C(COC(C)=O)OC(Sc3ccccc3C)C(OC(C)=O)C2OC(C)=O)C(OC(C)=O)C(OC(C)=O)C1OC(C)=O (configuration not stated) .
Solution: > 100 µM

Exercise: If you can, please state the reported TGI value of CC(C)(c1ccccc1)c1cc(O)c(C(C)(C)c2ccccc2)cc1O .
Solution: 8.58 µM

Exercise: If you can, please state the reported TGI value of O=C1C2CCCCC2C(=O)N1n1c(-c2ccccc2)n[nH]c1=O (configuration not stated) .
Solution: > 100 µM

Exercise: If you can, please state the reported TGI value of CC(C)(C)C1CCC2c3c([nH]c4ccccc34)C3C(=O)N(c4ccccc4[N+](=O)[O-])C(=O)C3C2C1 (configuration not stated) .
Solution: 50.5 µM

----------
Test system: NCI-H522 lung
measurement description: NCI tumour cell line growth inhibition, 48 h
recorded metric: TGI

COc1cc(/C=C/c2cc(/C=C/c3ccc(O)c(OC)c3)n(C(=O)Nc3ccccc3Cl)n2)ccc1O :: 0.672 µM
CC(=O)OCCOCNC(=S)N/N=C/c1cc([N+](=O)[O-])ccc1O :: > 100 µM
CCOc1cn(C2OC(CO)C(O)C2O)c(=O)[nH]c1=O (stereo not given) :: > 100 µM

Exercise: If you can, please state the reported TGI value of O=C(O)c1cc(=O)cc(C(=O)O)o1 .
Solution: > 100 µM

Exercise: If you can, please state the reported TGI value of NS(=O)(=O)c1ccc(Nc2c3ccccc3nc3c(C(=O)N4CCN(CCO)CC4)cccc23)cc1 .
Solution: > 100 µM
